- protocol description: Single-dose pharmacokinetics of metapristone in rats (p.o. and i.v.), non-compartmental analysis
- Assay type: in vivo, Sprague Dawley (SD) rats
- test parameters: Sprague-Dawley, rat, plasma, po; female rats, p.o. 22.5 mg/kg; read-out: F
value kind: bioavailability (%)
Please reply with the bare figure in % and do not write the unit itself.

stdin: Requested read-out: bioavailability. Entry: CC#C[C@]1(O)CC[C@H]2[C@@H]3CCC4=CC(=O)CCC4=C3[C@@H](c3ccc(NC)cc3)C[C@@]21C
stdout: 18.5

----------
- protocol description: Single-dose pharmacokinetics of metapristone in rats (p.o. and i.v.), non-compartmental analysis
- Format: in vivo, Sprague Dawley (SD) rats
- test parameters: Sprague-Dawley, rat, plasma, po; female rats, p.o. 22.5 mg/kg; read-out: T max
value kind: Tmax (h)
Please reply with the bare figure in h and do not write the unit itself.

stdin: Requested read-out: Tmax. Entry: CC#C[C@]1(O)CC[C@H]2[C@@H]3CCC4=CC(=O)CCC4=C3[C@@H](c3ccc(NC)cc3)C[C@@]21C
stdout: 9
